# System: BG1Luc4E2 ER-luciferase reporter inhibition, 24 h
# TEST_DESCRIPTION: suppression of estradiol-induced ERE reporter expression – BG1Luc4E2 ovarian carcinoma cells, luminescence, counter-screen for AHR activator project, late-stage follow-up (AID 602169)
# MEASUREMENT_SETUP: at 10 µM; stronger effect = higher value
If the reported inhibition equals or exceeds 7%, assign True. If not, assign False.

STRUCTURE_SMILES: CC(=O)c1ccc(NC(=O)c2cc(Cl)nc3ccccc23)cc1
ASSIGNED_CATEGORY: False

**Q:** Does inhibition meet or surpass 7% for `COc1ccccc1C(=O)Nc1ccc(N2CCCCC2)cc1` ?
**A:** True

**Q:** Reported inhibition at or above 7%? `Cc1ccc(-c2cc(-c3cccs3)[nH]n2)c(O)c1`
**A:** True

* * *

# Test system: BG1Luc4E2 ER-luciferase reporter inhibition, 24 h
# TEST_DESCRIPTION: suppression of estradiol-induced ERE reporter expression – BG1Luc4E2 ovarian carcinoma cells, luminescence, counter-screen for AHR activator project, late-stage follow-up (AID 602169)
# MEASUREMENT_SETUP: at 10 µM; stronger effect = higher value
PARAMETER_MEASURED: inhibition (%)
Give bare numbers, in %.

STRUCTURE_SMILES: CCOC(=O)Cc1cc(-c2ccc(O)cc2)nc2ccc3ccccc3c12
UNIT_ABBREV: %
inhibition: 28
--
STRUCTURE_SMILES: Cc1nc(N)nc(Nc2ccc(Cl)cc2)c1Br
UNIT_ABBREV: %
inhibition: 7
--
STRUCTURE_SMILES: COC(=O)c1ccccc1NC(=O)Cn1ccnc1
UNIT_ABBREV: %
inhibition: 3
--
STRUCTURE_SMILES: CN1CCN(CCCNC(=O)c2cc3c(-c4ccc(Cl)cc4)nn(C)c3s2)CC1
UNIT_ABBREV: %
inhibition: 0

Next compound, please.
**Q:** Consider the compound shown here: `COc1ccc(NC(=O)c2cccc3c(Br)cccc23)cc1` What is its recorded inhibition?
**A:** 31
